meta.source: ChEMBL document CHEMBL1122538

protocol-summary: Binding energy by using the equation deltaG obsd = -RT ln KD
Format: ADME
Overview of recorded Binding energy for various molecules
Supply the numeric figure in kcal/mol, leaving out any unit text.

These recorded examples may help you get a feel for the data.
{"molecule": "C[C@]12CC[C@@H]3c4ccc(O)cc4CC[C@H]3[C@@H]1CC[C@@H]2O [ESTRADIOL]", "value-measured": 13.2}
{"molecule": "NC1(C(=O)O)CCCC1 [CYCLOLEUCINE]", "value-measured": 4.9}
{"molecule": "Cc1c(O)oc2ccccc2c1=O", "value-measured": 7}
{"molecule": "CN1CCN2c3ccccc3Cc3ccccc3C2C1 (stereo unspecified) [MIANSERIN]", "value-measured": 12.5}

Q. Quick one: Binding energy for CC12CCC(CC1=O)C2(C)C (stereo unspecified) [CAMPHOR] ?
A. 11.4

Q. Quick one: Binding energy for CC(C)NCC(O)COc1cccc2ccccc12 (stereo unspecified) [PROPRANOLOL] ?
A. 12.8

====

protocol-summary: Binding energy by using the equation deltaG obsd = -RT ln KD
Assay type: ADME
endpoint: Binding energy (kcal/mol)
Supply the numeric figure in kcal/mol, leaving out any unit text.

These recorded examples may help you get a feel for the data.
{"smiles-notation": "OC[C@H]1O[C@@H](n2cnc3c2N=CNC[C@H]3O)[C@H](O)[C@@H]1O", "units-of-measure": "kcal/mol", "Binding energy": 15}
{"smiles-notation": "CN(C)CCCN1c2ccccc2Sc2ccc(Cl)cc21", "units-of-measure": "kcal/mol", "Binding energy": 12.3}
{"smiles-notation": "O=C(O)Cc1ccccc1Oc1ccc(Cl)cc1Cl", "units-of-measure": "kcal/mol", "Binding energy": 9.2}

Q. Quick one: Binding energy for O=C(O)COP(=O)(O)O ?
A. 8.7

Q. Quick one: Binding energy for Nc1ccn([C@@H]2O[C@H](COP(=O)(O)O)[C@@H](O)[C@H]2O)c(=O)n1 ?
A. 5.9

====

protocol-summary: Binding energy by using the equation deltaG obsd = -RT ln KD
Type: ADME
# label = class 1 if Binding energy < 10 kcal/mol else class 0

{"compound": "CC(Cc1ccccc1)NCCC(c1ccccc1)c1ccccc1 (stereo unspecified)", "label-value": "class 1"}
{"compound": "NCCCC(=O)O", "label-value": "class 0"}
{"compound": "CC(C)Cc1cnc2nc(N)nc(N)c2n1", "label-value": "class 0"}
{"compound": "C[N+](C)(C)CCOC(N)=O.[Cl-]", "label-value": "class 0"}
{"compound": "CN1[C@@H]2CC[C@H]1C[C@@H](OC(=O)C(CO)c1ccccc1)C2 (stereo partly specified)", "label-value": "class 0"}

Turning now to a further record.
Q. Item CC(=O)O : Binding energy beneath 10 kcal/mol, strictly?
A. class 1

====

protocol-summary: Binding energy by using the equation deltaG obsd = -RT ln KD
Format: ADME
# label = 1 if Binding energy < 10 kcal/mol else 0

{"molecule": "O=C(O)C(=O)O", "label-value": 1}
{"molecule": "COc1cc2nc(N3CCN(C(=O)c4ccco4)CC3)nc(N)c2cc1OC", "label-value": 0}
{"molecule": "C=C(C)[C@@H]1[C@H]2OC(=O)[C@@H]1[C@]1(O)C[C@H]3O[C@]34C(=O)O[C@H]2[C@]14C", "label-value": 1}
{"molecule": "CCN(CC)C(=O)[C@@H]1C=C2c3cccc4[nH]cc(c34)C[C@H]2N(C)C1 [LYSERGIDE]", "label-value": 0}
{"molecule": "CC(C(=O)O)c1ccc(-c2ccccc2)c(F)c1 (centres undefined)", "label-value": 1}

Turning now to a further record.
Q. Item O=C(O)Cc1cc(I)c(Oc2ccc(O)c(I)c2)c(I)c1 : Binding energy beneath 10 kcal/mol, strictly?
A. 1

====

protocol-summary: Binding energy by using the equation deltaG obsd = -RT ln KD
Assay type: ADME
endpoint: Binding energy (kcal/mol)
Supply the numeric figure in kcal/mol, leaving out any unit text.

These recorded examples may help you get a feel for the data.
{"molecule": "O=P(O)(O)/C=C/CCO", "units-of-measure": "kcal/mol", "Binding energy": 4.1}
{"molecule": "CN1CCc2cccc3c2[C@H]1Cc1ccc(O)c(O)c1-3 [APOMORPHINE]", "units-of-measure": "kcal/mol", "Binding energy": 11.9}
{"molecule": "Nc1nc(N)c2nc(Cc3ccccc3)cnc2n1", "units-of-measure": "kcal/mol", "Binding energy": 12.3}
{"molecule": "C[C@]12CCC(=O)C[C@@H]1CC[C@@H]1[C@@H]2CC[C@]2(C)[C@@H](O)CC[C@@H]12 (stereo in doubt) [STANOLONE]", "units-of-measure": "kcal/mol", "Binding energy": 6.8}
{"molecule": "ClC1=C(Cl)[C@]2(Cl)[C@@H]3[C@@H]4C[C@@H]([C@H]5O[C@@H]45)[C@@H]3[C@@]1(Cl)C2(Cl)Cl [DIELDRIN]", "units-of-measure": "kcal/mol", "Binding energy": 6.1}
{"molecule": "C=C1CC[C@H](O)C/C1=C/C=C1\\CCC[C@]2(C)[C@@H]([C@H](C)CCC(O)C(C)(C)O)CC[C@@H]12 (stereo partly drawn)", "units-of-measure": "kcal/mol", "Binding energy": 13.2}
{"molecule": "NC[C@H](O)c1ccc(O)c(O)c1 [NOREPINEPHRINE]", "units-of-measure": "kcal/mol", "Binding energy": 12.1}
{"molecule": "CCC(C)CN (stereo not drawn)", "units-of-measure": "kcal/mol", "Binding energy": 2.8}

Proceeding to the next molecule to report its Binding energy.
Q. Quick one: Binding energy for O=C1CCCN1CC#CCN1CCCC1 [OXOTREMORINE] ?
A. 11.7

====

Overview of recorded Binding energy for various compounds
protocol-summary: Binding energy by using the equation deltaG obsd = -RT ln KD
Type: ADME
Supply the numeric figure in kJ/mol, leaving out any unit text.

These recorded examples may help you get a feel for the data.
{"compound": "C[N+](C)(C)C", "units-of-measure": "kJ/mol", "Binding energy": 15.1}
{"compound": "O=c1[nH]c2ccccc2n1C1CCN(CCCC(c2ccc(F)cc2)c2ccc(F)cc2)CC1 [PIMOZIDE]", "units-of-measure": "kJ/mol", "Binding energy": 53.6}

Proceeding to the next compound to report its Binding energy.
Q. Quick one: Binding energy for O=C(O)C(COP(=O)(O)O)[C@H](O)[C@H](O)COP(=O)(O)O (stereo partly drawn) ?
A. 34.3

====

Overview of recorded Binding energy for various compounds
protocol-summary: Binding energy by using the equation deltaG obsd = -RT ln KD
Type: ADME
Supply the numeric figure in kcal/mol, leaving out any unit text.

Q. Quick one: Binding energy for N=C(N)N/N=C/c1c(Cl)cccc1Cl [GUANABENZ] ?
A. 12.3

Q. Quick one: Binding energy for CCCCC[C@H](O)/C=C/[C@@H]1[C@@H](C/C=C\CCCC(=O)O)[C@@H](O)C[C@H]1O [DINOPROST] ?
A. 9.2

Q. Quick one: Binding energy for O=P(O)(O)O[C@H]1OC[C@@H](O)[C@H](O)[C@H]1O ?
A. 6.2

Q. Quick one: Binding energy for O=C1CCC(c2ccccc2)(C2CCN(Cc3ccccc3)CC2)C(=O)N1 (stereo not drawn) [BENZETIMIDE] ?
A. 12

Q. Quick one: Binding energy for CN(C)CCOC(c1ccc(Cl)cc1)c1ccccn1 (stereo not drawn) [CARBINOXAMINE] ?
A. 12.3

Q. Quick one: Binding energy for O=C(CCCN1CCC(n2c(O)nc3ccccc32)CC1)c1ccc(F)cc1 [BENPERIDOL] ?
A. 12.2

Q. Quick one: Binding energy for CCCCC1C(=O)N(c2ccccc2)N(c2ccccc2)C1=O [PHENYLBUTAZONE] ?
A. 7.3

Q. Quick one: Binding energy for CO/C=C/C(N)C(=O)O (stereo not drawn) ?
A. 5.9

Q. Quick one: Binding energy for CCc1nc(N)nc(N)c1-c1ccc(Cl)cc1 [PYRIMETHAMINE] ?
A. 9.7

Q. Quick one: Binding energy for C[C@@H]1C[C@H]2[C@@H]3CCC4=CC(=O)C=C[C@]4(C)[C@@]3(F)[C@@H](O)C[C@]2(C)[C@@]1(O)C(=O)CO [DEXAMETHASONE] ?
A. 10.9

Q. Quick one: Binding energy for CC(=O)CC(=O)C(=O)O ?
A. 9.1

Q. Quick one: Binding energy for COC(=O)[C@@H]1[C@H]2C[C@H]3c4[nH]c5ccccc5c4CCN3C[C@@H]2CC[C@@H]1O [YOHIMBINE] ?
A. 11.9

Q. Quick one: Binding energy for CCN [ETHYLAMINE] ?
A. 2.2

Q. Quick one: Binding energy for O=C(O)c1ccc(C(=O)O)c(C(=O)O)c1 ?
A. 5.2

Q. Quick one: Binding energy for CC(CN1CCOCC1)C(C(=O)N1CCCC1)(c1ccccc1)c1ccccc1 (stereo not drawn) [RACEMORAMIDE] ?
A. 12.3

Q. Quick one: Binding energy for CCC1(c2ccccc2)C(=O)NC(=O)N(C)C1=O (stereo not drawn) [MEPHOBARBITAL] ?
A. 7.3
